target: TYK2 (Homo sapiens, UniProt P29597); assay: TYK2 degradation MSD assay in EBV-B cells; type: cell-based; set-up: endogenous in cells; host or cells: EBV-B cells; details: 4 to 24 hours incubation, read-out: TYK2 MSD DC50 rating in EBV-B
Sequence (P29597 whole entry): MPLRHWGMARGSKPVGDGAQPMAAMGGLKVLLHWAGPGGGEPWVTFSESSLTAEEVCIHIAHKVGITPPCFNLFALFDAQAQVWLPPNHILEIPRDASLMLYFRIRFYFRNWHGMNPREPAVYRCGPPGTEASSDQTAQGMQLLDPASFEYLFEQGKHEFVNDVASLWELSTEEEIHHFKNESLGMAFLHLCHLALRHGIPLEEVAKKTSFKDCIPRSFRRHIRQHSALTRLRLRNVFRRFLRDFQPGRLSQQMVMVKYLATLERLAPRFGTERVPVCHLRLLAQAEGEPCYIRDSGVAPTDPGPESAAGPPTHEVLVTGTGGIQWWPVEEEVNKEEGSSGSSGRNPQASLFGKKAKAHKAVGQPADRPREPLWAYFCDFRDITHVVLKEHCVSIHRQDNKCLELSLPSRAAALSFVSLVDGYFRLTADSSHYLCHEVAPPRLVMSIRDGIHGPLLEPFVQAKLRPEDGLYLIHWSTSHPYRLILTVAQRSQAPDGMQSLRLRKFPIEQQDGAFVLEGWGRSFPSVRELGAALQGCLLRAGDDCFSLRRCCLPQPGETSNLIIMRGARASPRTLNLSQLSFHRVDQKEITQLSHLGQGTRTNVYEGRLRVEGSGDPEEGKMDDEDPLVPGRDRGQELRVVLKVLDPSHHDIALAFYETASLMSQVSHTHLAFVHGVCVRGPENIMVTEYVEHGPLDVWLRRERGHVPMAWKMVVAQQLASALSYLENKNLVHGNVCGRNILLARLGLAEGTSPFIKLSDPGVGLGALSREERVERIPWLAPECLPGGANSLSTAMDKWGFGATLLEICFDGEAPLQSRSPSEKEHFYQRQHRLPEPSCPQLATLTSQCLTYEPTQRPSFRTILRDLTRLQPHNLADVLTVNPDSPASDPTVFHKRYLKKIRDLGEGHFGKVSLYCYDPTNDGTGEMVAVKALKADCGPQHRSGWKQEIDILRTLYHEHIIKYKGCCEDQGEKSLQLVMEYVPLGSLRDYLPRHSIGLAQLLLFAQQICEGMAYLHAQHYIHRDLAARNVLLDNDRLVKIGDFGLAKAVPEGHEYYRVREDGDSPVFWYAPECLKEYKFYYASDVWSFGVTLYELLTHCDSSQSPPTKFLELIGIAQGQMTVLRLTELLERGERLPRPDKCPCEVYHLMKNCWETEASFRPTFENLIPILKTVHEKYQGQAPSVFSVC
Reported DC50 values for the following compounds.
endpointLabel: DC50

>  <compound>
O=C1CCN(c2cnc3cc(CCOCCOCCOCCOCCNc4cc(Nc5cccn(-c6ccccn6)c5=O)nn5c(C(=O)N[C@@H]6C[C@@H]6F)cnc45)ccn23)C(=O)N1 [Example K468]

>  <resultValue>
> 100 nM

$$$$
>  <compound>
CNC(=O)c1cnc(Nc2ccc(C(=O)NCCCCc3cccc4c3n(C)c(=O)n4C3CCC(=O)NC3=O)cn2)cc1Nc1ccccc1S(C)(=O)=O (centres unmarked) [Example K190]

>  <resultValue>
10 to 100 nM

$$$$
>  <compound>
CNc1cc(Nc2cccn(-c3cc(C(=O)NCCCCCCCCCCc4cccc5c4n(C)c(=O)n5C4CCC(=O)NC4=O)ccn3)c2=O)nn2c(C(=O)N[C@@H]3C[C@@H]3F)cnc12 (some centres unmarked) [Example K234]

>  <resultValue>
> 100 nM

$$$$
>  <compound>
CNc1cc(N2CCc3c(N4CCN(C5CC6(CCN(c7ccc8c(c7)n(C)c(=O)n8C7CCC(=O)NC7=O)CC6)C5)CC4)cccc32)nn2c(C(=O)N[C@@H]3C[C@@H]3F)cnc12 (some centres unmarked) [Example K646]

>  <resultValue>
> 100 nM

$$$$
>  <compound>
CNc1cc(-c2ccc(-c3ccc(CN4CCN(c5ccc(-c6ccc7c(c6)n(C)c(=O)n7C6CCC(=O)NC6=O)cc5)CC4)cn3)cc2)nn2c(C(=O)N[C@@H]3C[C@@H]3F)cnc12 (some centres unmarked) [Example K529]

>  <resultValue>
> 100 nM

$$$$

---

molecular target: TYK2 (Homo sapiens); test: TYK2 degradation MSD assay in human PBMC cells; format: cell-based; parameters: endogenous in cells; host or cells: human PBMC; conditions: 4 to 24 hours incubation, read-out: TYK2 MSD DC50 rating in human PBMC
endpointLabel: DC50

>  <molecule>
CNC(=O)c1cnc(Nc2ccc(CN3CCCC(c4ccc5c(c4)n(C)c(=O)n5C4CCC(=O)NC4=O)C3)cn2)cc1Nc1cccc(-c2ncc(F)cn2)c1OC (centres unmarked) [Example K168]

>  <endpointLabel>
DC50

>  <resultValue>
> 100 nM

$$$$
>  <molecule>
CNc1cc(Nc2cccc(-c3ccc(CN4CCN(c5cccc6c(N7CCC(=O)NC7=O)cncc56)CC4)cn3)c2)nn2c(C(=O)N[C@@H]3C[C@@H]3F)cnc12 [Example K467]

>  <endpointLabel>
DC50

>  <resultValue>
> 100 nM

$$$$
>  <molecule>
CNc1cc(-c2cnn(C3CN(C(=O)NCCCCc4ccc5c(c4)n(C)c(=O)n5C4CCC(=O)NC4=O)C3)c2)nn2c(C(=O)N[C@@H]3C[C@@H]3F)cnc12 (some centres unmarked) [Example K314]

>  <endpointLabel>
DC50

>  <resultValue>
> 100 nM

$$$$
>  <molecule>
CNC(=O)c1cnc(Nc2ccc(CN3CCN(c4cccc5c4n(C)c(=O)n5C4CCC(=O)NC4=O)CC3)cn2)cc1Nc1cccc(-c2ncc(F)cn2)c1OC (centres unmarked) [Example K173]

>  <endpointLabel>
DC50

>  <resultValue>
> 100 nM

$$$$
>  <molecule>
CNc1cc(Nc2cccn(-c3ccc(C(=O)N4CC5(CC(CN6CCN(c7ccc8c(c7)n(C)c(=O)n8C7CCC(=O)NC7=O)CC6)CO5)C4)cn3)c2=O)nn2c(C(=O)N[C@@H]3C[C@@H]3F)cnc12 (some centres unmarked) [Example K418]

>  <endpointLabel>
DC50

>  <resultValue>
> 100 nM

$$$$
>  <molecule>
CNc1cc(Nc2cccn(C3CCN(C(=O)N(C)C4CCN(Cc5cccc6c5n(C)c(=O)n6C5CCC(=O)NC5=O)CC4)CC3)c2=O)nn2c(C(=O)N[C@@H]3C[C@@H]3F)cnc12 (some centres unmarked) [Example K396]

>  <endpointLabel>
DC50

>  <resultValue>
> 100 nM

$$$$
>  <molecule>
CNc1cc(Nc2cccn(-c3ccc(C(=O)NCCOCCOCCOCCOCCOCCOCCc4cccc5c4n(C)c(=O)n5C4CCC(=O)NC4=O)cn3)c2=O)nn2c(C(=O)N[C@@H]3C[C@@H]3F)cnc12 (some centres unmarked) [Example K217]

>  <endpointLabel>
DC50

>  <resultValue>
10 to 100 nM

$$$$
>  <molecule>
CNC(=O)c1cnc(Nc2ccc(C(=O)NCCCCCCc3ccc4c(c3)n(C)c(=O)n4C3CCC(=O)NC3=O)cn2)cc1Nc1cccc(-c2ncc(F)cn2)c1OC (centres unmarked) [Example K110]

>  <endpointLabel>
DC50

>  <resultValue>
< 1 nM

$$$$
>  <molecule>
CNc1cc(Nc2ccccc2C(=O)NCCCCCCCCc2cccc3c2n(C)c(=O)n3C2CCC(=O)NC2=O)nn2c(C(=O)N[C@@H]3C[C@@H]3F)cnc12 (some centres unmarked) [Example K258]

>  <endpointLabel>
DC50

>  <resultValue>
< 1 nM

$$$$
>  <molecule>
CNC(=O)c1cnc(Nc2ccc(CN3CCC(CC#Cc4cccc5c4n(C)c(=O)n5C4CCC(=O)NC4=O)CC3)cn2)cc1Nc1cccc(-c2ncc(F)cn2)c1OC (centres unmarked) [Example K136]

>  <endpointLabel>
DC50

>  <resultValue>
1 to 10 nM

$$$$
>  <molecule>
CNc1cc(-c2cnn(C3CCN(C(=O)NCCCCCCc4cccc5c4n(C)c(=O)n5C4CCC(=O)NC4=O)CC3)c2)nn2c(C(=O)N[C@@H]3C[C@@H]3F)cnc12 (some centres unmarked) [Example K312]

>  <endpointLabel>
DC50

>  <resultValue>
> 100 nM

$$$$

---

Reported DC50 values for the following compounds.
molecular target: TYK2 (Homo sapiens, UniProt P29597); assay: TYK2 degradation MSD assay in EBV-B cells; format: cell-based; design: endogenous in cells; host or cells: EBV-B cells; settings: 4 to 24 hours incubation, read-out: TYK2 MSD DC50 rating in EBV-B

>  <compound>
CNc1cc(Nc2cccc(-c3ccc(CN4CCC(C#Cc5ccc6c(c5)n(C)c(=O)n6C5CCC(=O)NC5=O)CC4)cn3)c2)nn2c(C(=O)N[C@@H]3C[C@@H]3F)cnc12 (some centres unmarked)

>  <tgt>
TYK2 (Homo sapiens, UniProt P29597)

>  <DC50>
> 100 nM

$$$$
>  <compound>
CNc1cc(Nc2cccn(-c3cc(C(=O)NCCCCc4cccc5c4n(C)c(=O)n5C4CCC(=O)NC4=O)ccn3)c2=O)nn2c(C(=O)N[C@@H]3C[C@@H]3F)cnc12 (some centres unmarked)

>  <tgt>
TYK2 (Homo sapiens, UniProt P29597)

>  <DC50>
> 100 nM

$$$$
>  <compound>
CNc1cc(Nc2cccn(-c3ccc(C(=O)N(C)Cc4ccc(-c5ccc6c(c5)n(C)c(=O)n6C5CCC(=O)NC5=O)cn4)cn3)c2=O)nn2c(C(=O)N[C@@H]3C[C@@H]3F)cnc12 (some centres unmarked)

>  <tgt>
TYK2 (Homo sapiens, UniProt P29597)

>  <DC50>
> 100 nM

$$$$
>  <compound>
CNC(=O)c1cnc(Nc2cc(C(=O)NCCCCCCc3cccc4c3n(C)c(=O)n4C3CCC(=O)NC3=O)ccn2)cc1Nc1cccc(-c2ncc(F)cn2)c1OC (centres unmarked)

>  <tgt>
TYK2 (Homo sapiens, UniProt P29597)

>  <DC50>
1 to 10 nM

$$$$
>  <compound>
CNC(=O)c1cnc(NC(=O)NCCCCCCCCc2ccc3c(c2)n(C)c(=O)n3C2CCC(=O)NC2=O)cc1Nc1cccc(-c2ncc(F)cn2)c1OC (centres unmarked)

>  <tgt>
TYK2 (Homo sapiens, UniProt P29597)

>  <DC50>
> 100 nM

$$$$

---

Target: UniProt:P29597
Experiment: TYK2 degradation MSD assay in EBV-B cells
Type: cell-based
Design: endogenous in cells; host or cells: EBV-B cells
Settings: 4 to 24 hours incubation, read-out: TYK2 MSD DC50 rating in EBV-B
Protocol: Example 3. TYK2 Degradation MSD Assay in EBV-B, OCI-LY10, and Human PBMC Cells Degradation of TYK2 in cells was quantitatively measured using Meso Scale Discovery (MSD) technology. […] The assay plates were then incubated at room temperature for 1 hour, washed 3 times with 150 μl/well TBST buffer, and 150 μl/well MSD reading buffer (MSD, R92TC-2) were added. The plates were then analyzed by an MSD reader. […]
endpointLabel: DC50

>  <compound>
CNC(=O)c1cnc(Nc2cc(C(=O)NCCCCCCCCc3cccc4c3n(C)c(=O)n4C3CCC(=O)NC3=O)ccn2)cc1Nc1cccc(-c2ncc(F)cn2)c1OC (centres unmarked) [Example K130]

>  <resultValue>
1 to 10 nM

$$$$
>  <compound>
CNC(=O)c1cnc(Nc2ccc(C(=O)NCCOCCOCCc3ccc4c(c3)n(C)c(=O)n4C3CCC(=O)NC3=O)cn2)cc1Nc1cccc(-c2ncc(F)cn2)c1OC (centres unmarked) [Example K112]

>  <resultValue>
1 to 10 nM

$$$$
>  <compound>
CNC(=O)c1cnc(Nc2ccc(CN3CCC(N(C)c4cccc5c4n(C)c(=O)n5C4CCC(=O)NC4=O)CC3)cn2)cc1Nc1cccc(-c2ncc(F)cn2)c1OC (centres unmarked) [Example K700]

>  <resultValue>
> 100 nM

$$$$
>  <compound>
CNC(=O)c1cnc(Nc2ccc(CN(C)C3CCN(c4cccc5c4n(C)c(=O)n5C4CCC(=O)NC4=O)C3)cn2)cc1Nc1cccc(-c2ncc(F)cn2)c1OC (centres unmarked) [Example K171]

>  <resultValue>
< 1 nM

$$$$
>  <compound>
CNc1cc(Nc2cccn(-c3ccc(C(=O)N4CCN(CCOc5cccc(-c6ccc7c(c6)n(C)c(=O)n7C6CCC(=O)NC6=O)c5)CC4)cn3)c2=O)nn2c(C(=O)N[C@@H]3C[C@@H]3F)cnc12 (some centres unmarked) [Example K440]

>  <resultValue>
> 100 nM

$$$$

Taken from patent US20250051338A1.
